Tested on: HEK293T GAL4DBD-only luciferase reporter, luminescence counterscreen
Experiment: Gal4 DBD-only luciferase reporter interference, late-stage follow-up, counter-screen for DAX1 inhibitor project, cell-based, luminescence, HEK293T, empty GAL4DBD, dose response (AID 588821)
The source made the active and inactive calls.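 The calls were made as follows: active = IC50 at or below 10 µM; inactive = IC50 above 10 µM.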
Write down one outcome, taken from active, inactive

- compound: "COc1ccc(OC)c(C(C)NC(=O)c2ccccc2C)c1 (centres undefined)"
  assigned class: "inactive"
- compound: "COc1ccc(OC)c(C(C)NC(=O)c2ccc(Cl)cc2)c1 (centres undefined)"
  assigned class: "inactive"
- compound: "COc1ccc(OC)c(C(C)NC(=O)c2ccc(C)cc2)c1 (centres undefined)"
  assigned class: "inactive"
- compound: "COc1ccc(OC)c(C(C)NC(=O)c2c(F)cccc2Cl)c1 (centres undefined)"
  assigned class: "inactive"

Problem: Assay outcome for Cn1c(=O)n(C)c2cc(C(=O)Nc3ccc4c(c3)OCCO4)ccc21 : what was it?
Solution: inactive

Problem: Recorded test call requested for O=C(Nc1ccc2c(c1)OCO2)c1ccc(C2SCC(=O)N2Cc2ccccc2)cc1 (centres undefined)
Solution: inactive

Problem: Tell me the recorded outcome of this test for COc1ccc(OC)c(C(C)NC(=O)c2cccc(C)c2)c1 (centres undefined) .
Solution: inactive

Problem: Status in this test for Cn1c(=O)n(C)c2cc(C(=O)Nc3ccc4c(c3)OCO4)ccc21 ?
Solution: inactive

Problem: Would you mind telling me which call this test gave COc1ccc(OC)c(C(C)NC(=O)c2ccccc2)c1 (centres undefined) ?
Solution: inactive
